# credit: paper PMC12040969

System: breast - MCF-7
Experiment summary: Antiproliferative assay (MTT) MCF-7
Run conditions: MCF-7, 12.5 µM
Assign labels as follows, please: Yes for Average of Relative viability of cells (%) below 40%; No for Average of Relative viability of cells (%) equal to or exceeding 40%.

For orientation, consider the following solved cases.
Cc1ccc(/C=C/C(=O)c2sc(SCC(=O)Nc3nccs3)nc2C)cc1 [Compound 13d]; Yes
Cc1ccc(-c2csc(NC(=O)CSc3nc(C)c(C(=O)/C=C/c4ccc(F)cc4)s3)n2)cc1 [Compound 10m]; No

Would you kindly verify if Average of Relative viability of cells (%) of Cc1nc(SCC(=O)Nc2nc(-c3ccc(Cl)cc3)cs2)sc1C(=O)/C=C/c1ccc(F)cc1 [Compound 10h] is strictly less than 40%?
No

Would you kindly verify if Average of Relative viability of cells (%) of Cc1nc(SCC(=O)Nc2nccs2)sc1C(=O)/C=C/c1ccc(F)cc1 [Compound 13c] is strictly less than 40%?
No

Would you kindly verify if Average of Relative viability of cells (%) of Cc1nc(SCC(=O)Nc2nc(-c3ccc(Cl)cc3)cs2)sc1C(=O)/C=C/c1ccccc1 [Compound 10f] is strictly less than 40%?
No

Would you kindly verify if Average of Relative viability of cells (%) of COc1ccc(/C=C/C(=O)c2sc(SCC(=O)Nc3nc(-c4ccc(C)cc4)cs3)nc2C)cc1 [Compound 10o] is strictly less than 40%?
Yes
